Values from patent US20240158368A1

Answer each item with its documented Papp.
assay: in vitro; conditions: PAMPA
Entry rule: numbers only, all in ×10⁻⁶ cm/s.

Q. For the compound shown here, "COc1cccc2[nH]c(=O)cc(C(=O)N[C@@H]3CCN(c4c(C(=O)N5CCOCC5)cc(F)cc4C4CC4)C3)c12" , give the reported Papp.
A. 2.98

Q. For the compound shown here, "NC(=O)c1cc(C(=O)N2CCOCC2)c(N2CC[C@@H](NC(=O)c3cc(=O)[nH]c4c(F)cccc34)C2)c(C(F)(F)F)c1" , give the reported Papp.
A. 0.1

Q. For the compound shown here, "Cc1cc(C(=O)N2CCOCC2)c(N2CC[C@@H](NC(=O)c3cc(=O)[nH]c4c(F)cccc34)C2)c(C2CC2)c1" , give the reported Papp.
A. 14.7

Q. For the compound shown here, "COc1cccc2[nH]c(=O)cc(C(=O)N[C@@H]3CCN(c4c(C(=O)N5CCOCC5)cc(Cl)nc4C4CC4)C3)c12" , give the reported Papp.
A. 3.1

Q. For the compound shown here, "COc1cccc2[nH]c(=O)cc(C(=O)N[C@@H]3CCN(c4c(C5CC5)ccc(F)c4C(=O)N4CCOCC4)C3)c12" , give the reported Papp.
A. 2.46

---

Answer each item with its documented CLint scaled.
test: in vitro; conditions: human, pH 7.4

Q. For the molecule shown here, "N#Cc1cc(C(=O)N2CC3CC(C2)O3)c(N2CC[C@@H](NC(=O)c3cc(=O)[nH]c4c(F)cccc34)C2)c(C(F)(F)F)c1" , give the reported CLint scaled.
A. < 28.3 mL/min/kg

Q. For the molecule shown here, "COCCN1CCN(C(=O)c2cc(C#N)cc(C(F)(F)F)c2N2CC[C@@H](NC(=O)c3cc(=O)[nH]c4c(F)cccc34)C2)CC1" , give the reported CLint scaled.
A. < 36.7 mL/min/kg

Q. For the molecule shown here, "N#Cc1cc(C(=O)N2CCCC2)c(N2CC[C@@H](NC(=O)c3cc(=O)[nH]c4c(F)cccc34)C2)c(C(F)(F)F)c1" , give the reported CLint scaled.
A. < 36.7 mL/min/kg

---

target: SARS-CoV-1 Mpro (Severe acute respiratory syndrome coronavirus (SARS-CoV)); assay type: biochemical
measuredMetric: pEC50
The read-out pEC50 is expressed as -log10 of concentration in moles per litre.

Q. For the compound shown here, COc1cccc2[nH]c(=O)cc(C(=O)N[C@@H]3CCN(c4c(C(=O)N5CCOCC5)cc(C)cc4C4CC4)C3)c12 [Compound 81] , give the reported pEC50.
A. 8.86

Q. For the compound shown here, O=C(N[C@@H]1CCN(c2c(C(=O)N3CCOCC3)cc(Br)cc2C(F)(F)F)C1)c1cc(=O)[nH]c2c(F)c(F)ccc12 [Compound 51] , give the reported pEC50.
A. 8.91

Q. For the compound shown here, O=C(N[C@@H]1CCN(c2c(C(=O)N3CCN4CCOCC4C3)cc(Br)cc2C(F)(F)F)C1)c1cc(=O)[nH]c2c(F)cccc12 (stereo partly drawn) [Compound 71] , give the reported pEC50.
A. 8.71

---

assay: in vitro; conditions: human, microsomes, pH 7.4
measuredMetric: CLint scaled (mL/min/kg)
Entry rule: numbers only, all in mL/min/kg.

Q. For the compound shown here, "O=C(N[C@@H]1CCN(c2c(C(=O)N3CCOCC3)cc(F)cc2C2CC2)C1)c1cc(=O)[nH]c2c(F)cccc12" , give the reported CLint scaled.
A. 53.3

Q. For the compound shown here, "O=C(N[C@@H]1CCN(c2c(C(=O)N3CCOCC3)cc(Br)cc2C(F)(F)F)C1)c1cc(=O)[nH]c2c(F)ccc(F)c12" , give the reported CLint scaled.
A. 183
